Test: Approximate solubility of starting material at RT in 20 solvents
Assay type: physicochemical
Conditions: organic solvent or mixture, DCM
Recorded solubility for the following compounds

CCCCC1(CCCC)CS(=O)(=O)c2ccc(N(C)C)cc2[C@@H](c2ccc(O)cc2)[C@H]1O : 8.7 to 26 mg/mL

Now for a further compound.
Please indicate solubility recorded for `CCCCC1(CCCC)CS(=O)(=O)c2ccc(N(C)C)cc2[C@@H](c2ccc(OC)cc2)[C@H]1O`
> 58 mg/mL

----------
Recorded solubility for the following compounds
Assay: Approximate solubility of starting material at RT in 20 solvents
Type: physicochemical
Conditions: organic solvent or mixture, EtOAc

CCCCC1(CCCC)CS(=O)(=O)c2ccc(N(C)C)cc2[C@@H](c2ccc(O)cc2)[C@H]1O [Formula II] : 20 to 40 mg/mL

Now for a further compound.
Please indicate solubility recorded for CCCCC1(CCCC)CS(=O)(=O)c2ccc(N(C)C)cc2[C@@H](c2ccc(OC)cc2)[C@H]1O [Formula I]
> 40 mg/mL
